- testDetails: In vivo toxicity / maximum tolerated dose
- Parameters: species or system Mice (strain: Swiss Webster)
- testContext: Swiss Webster, mouse, in vivo; FIG. 14A; read-out: maximum tolerated dosage (MTD)
Ends that are not written are not given here.
Property: MTD; scope: individual sequences

{"residues": "LKKWWKKVKGLLGGLLGKVTSVIK [SEQ ID No. 15]", "MTD, mg/kg": 30}
{"residues": "RRWVRRVRRVWRRVVRVVRRWVRR [SEQ ID No. 26, reference compound]", "MTD, mg/kg": 15}

###

- System: Klebsiella pneumonia MDR clinical isolates
- Format: cell-based
- testContext: 18 h
Ends that are not written are not given here.
# maps each entry to its MIC D7
reportedEndpoint: MIC D7

{"residues": "LKKWWKKVKGLLGGLLGKVTSVIK [SEQ ID No. 15]", "result": "2 µM"}
{"residues": "LLGDFFRKSKEKIGKEFKRIVQRIKDFLRNLLPRTES [SEQ ID No. 25, reference compound]", "result": "<16 µM"}
{"residues": "LKKWWKKVKGLLGGLLGK [SEQ ID No. 19, LKKWWKKVKGLLGGLLGK]", "result": "<2 µM"}
{"residues": "ILKPGGGTSGGLLGGLLGKVTSVIPGLNNI [SEQ ID No. 1, reference compound]", "result": ">32 µM"}
{"residues": "LKKWWKKVKGLLGGLLGKVKKVIK [SEQ ID No. 17]", "result": "<2 µM"}
{"residues": "LKKWWKTVKGLLGGLLGKVTSVIK [SEQ ID No. 14]", "result": "<2 µM"}
{"residues": "ILKKWWKTSKGLLGGLLGKVTSVIKGLNNI [SEQ ID No. 5]", "result": "<1 µM"}
{"residues": "LKKWWKKVKGLLGGLLGKVKSVIK [SEQ ID No. 16]", "result": "<2 µM"}
{"residues": "ILKKWWKTVKGLLGGLLGGVTSVIKKLKKI [SEQ ID No. 9]", "result": "<2 µM"}
{"residues": "ILKKWWKTSKGLLGGLLGGVTSVIKKLKKI [SEQ ID No. 8]", "result": "<2 µM"}

###

Measured MIC PA 129-5 of individual entries
- Tested on: Pseudomonas aeruginosa MDR clinical isolates
- Assay type: cell-based
- testContext: MDR clinical isolates, 18 h
Ends that are not written are not given here.

{"residues": "LKKWWKTSKGLLGGLLGKVTSVIK [SEQ ID No. 13]", "MIC PA 129-5": "<16 µM"}
{"residues": "LKKWWKKVKGLLGGLLGKVKKVIK [SEQ ID No. 17]", "MIC PA 129-5": "<2 µM"}
{"residues": "LKKWWKKVKGLLGGLLGKVKSVIK [SEQ ID No. 16]", "MIC PA 129-5": "4 µM"}
{"residues": "ILKKWWKTSKGLLGGLLGKVTSVIKGLNNI [SEQ ID No. 5]", "MIC PA 129-5": "<1 µM"}
{"residues": "ILKKWWKTSKGLLGGLLGGVTSVIKKLKKI [SEQ ID No. 8]", "MIC PA 129-5": "<2 µM"}
{"residues": "ILKKWWKTSKGLLGGLLGGVTSVIKKLKKI [SEQ ID No. 7]", "MIC PA 129-5": "<2 µM"}
{"residues": "ILKKWWKTSKGLLGGLLGKVTSVIKGLKNI [SEQ ID No. 6]", "MIC PA 129-5": ">4 µM"}
{"residues": "LKKWWKKVKGLLGGLLGK [SEQ ID No. 19, LKKWWKKVKGLLGGLLGK]", "MIC PA 129-5": "<1 µM"}
{"residues": "LKKWWKTVKGLLGGLLGKVTSVIK [SEQ ID No. 14]", "MIC PA 129-5": "<2 µM"}
{"residues": "ILKPGGGTSGGLLGGLLGKVTSVIPGLNNI [SEQ ID No. 1, reference compound]", "MIC PA 129-5": ">32 µM"}
{"residues": "ILKKWWKTSGGLLGGLLGKVTSVIKGLNNI [SEQ ID No. 4]", "MIC PA 129-5": "4 µM"}

###

Measured MIC PA 129-5, listed per entry.
- Test system: Pseudomonas aeruginosa MDR clinical isolates
- Format: cell-based
- testContext: MDR clinical isolates, 18 h
Ends that are not written are not given here.
reportedEndpoint: MIC PA 129-5 (µM)

{"residues": "GVKKKWKKKLGLKLWLKISGVVLG [SEQ ID No. 24, reference compound]", "relationQualifier": "<", "measuredNumber": 16}
{"residues": "LKKWWKKVKGLLGGLLGKVTSVIK [SEQ ID No. 15]", "relationQualifier": "=", "measuredNumber": 1}
{"residues": "LLGDFFRKSKEKIGKEFKRIVQRIKDFLRNLLPRTES [SEQ ID No. 25, reference compound]", "relationQualifier": "=", "measuredNumber": 16}
{"residues": "ILKKWWKTVKGLLGGLLGGVTSVIKKLKKI [SEQ ID No. 9]", "relationQualifier": ">", "measuredNumber": 4}
{"residues": "ILKKWWGTSGGLLGGLLGKVTSVIKGLNNI [SEQ ID No. 3]", "relationQualifier": ">", "measuredNumber": 32}
